Cited source for all entries: patent US9783509B2

- Assay Comment: log P by reversed-phase HPLC analogously to OECD Guideline 117
- Assay type: physicochemical
- Setup Conditions: [a] acidic range, pH 2.7, formic acid (or trifluoroacetic acid)/acetonitrile

{"columns": ["Compound", "LogP[a]"],
 "data": [
  ["Cc1cc(C)c([S+]([O-])CC(F)(F)F)cc1-n1ccc(=O)[nH]c1=O (centres unmarked)", 1.35],
  ["Cc1cc(F)c(-n2ncc(=O)n(CC(C)C)c2=O)cc1[S+]([O-])CC(F)(F)F (racemic)", 2.92],
  ["Cc1cc(C)c([S+]([O-])CC(F)(F)F)cc1-n1ncc(=O)n(CC2CC2)c1=O (racemic)", 2.77],
  ["Cn1c(=O)cnn(-c2cc([S+]([O-])CC(F)(F)F)c(Cl)cc2Cl)c1=O (racemic)", 2.48],
  ["Cc1cc(C)c(-n2ncc(=O)n(C)c2=O)cc1SCC(F)(F)F", 3.08],
  ["Cc1cc(F)c(-n2ccc(=O)n(CC(F)F)c2=O)cc1SCC(F)(F)F", 2.99],
  ["COCn1c(=O)ccn(-c2cc([S+]([O-])CC(F)(F)F)c(C)cc2F)c1=O (centres unmarked)", 1.67],
  ["Cc1ccc(-n2ccc(=O)n(CC(F)(F)F)c2=O)cc1[S+]([O-])CC(F)(F)F (centres unmarked)", 2.18],
  ["Cc1cc(F)c(-n2ncc(=O)n(CC(C)C)c2=O)cc1SCC(F)(F)F", 4.03],
  ["CCn1c(=O)ccn(-c2cc([S+]([O-])CC(F)(F)F)c(C)cc2C)c1=O (centres unmarked)", 1.96],
  ["CCn1c(=O)ccn(-c2cc(SCC(F)(F)F)c(C)cc2C)c1=O", 2.98],
  ["Cc1cc(F)c(-n2ccc(=O)n(C(C)C)c2=O)cc1SCC(F)(F)F", 3.21],
  ["Cc1cc(F)c(-n2ccc(=O)n(Cc3ccc(F)cc3)c2=O)cc1SCC(F)(F)F", 3.56],
  ["Cc1ccc(-n2ccc(=O)n(CC#N)c2=O)cc1SCC(F)(F)F", 2.55]
]}
